Field: EC50. Provide a value for each of the compounds that follow.
target: human IL-17AA (Homo sapiens, UniProt Q16552); construct: host or cells: HEK (human embryonic kidney) cells; test: IL-8 release assay in human epithelial keratinocytes adult (HEKa); format: cell-based; conditions: HEKa cells; 3 ng/mL HEK-human IL-17AA + 10 ng/mL human TNFalpha; 68-72 hours; IL-8 by HTRF; read-out: Rel EC50 IL-8 release assay
Sequence (Q16552 24-155): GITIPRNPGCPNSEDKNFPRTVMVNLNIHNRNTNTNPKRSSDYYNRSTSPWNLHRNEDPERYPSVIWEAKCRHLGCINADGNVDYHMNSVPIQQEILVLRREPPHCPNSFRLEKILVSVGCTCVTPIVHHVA
Sequence (Q16552 24-155): as above
The answer is to be given in nM; state only the numeric part.

// query Could you share which EC50 value was measured for Cc1n[nH]c(C)c1-c1ccc(NC(=O)C(c2nnc(C3CCCC3)[nH]2)C(C2CC2)C2CC2)cc1 (stereo not shown) ?
// result 1900

// query Fill blank: measured EC50 of the compound Cc1n[nH]c(C)c1-c1ccc(NC(=O)C(c2nnc(-c3ccnn3CC3CC3)[nH]2)C(C2CC2)C2CC2)cc1 (stereo not shown) is ____.
// result 22

// query Consider the compound Cc1n[nH]c(C)c1-c1ccc(NC(=O)C(c2nnc(Cc3cccnc3)[nH]2)C(C2CC2)C2CC2)cc1 (stereo not shown) and give its measured EC50.
// result 350

// query # EC50 lookup, item COc1cc(-c2nnc(C(C(=O)Nc3ccc(-c4c(C)n[nH]c4C)cc3)C(C3CC3)C3CC3)[nH]2)ccn1 (stereo not shown)
// result 160

###

target: human IL-17AA (Homo sapiens, UniProt Q16552); experiment: IL-8 release assay in human epithelial keratinocytes adult (HEKa); settings: HEKa cells; 3 ng/mL HEK-human IL-17AA + 10 ng/mL human TNFalpha; 68-72 hours; IL-8 by HTRF; read-out: Rel EC50 IL-8 release assay
Please respond with reported pEC50 for every item in the list.
Schema: pEC50 number; meaning minus log10 of the concentration expressed in molar units.

// query What measured pEC50 is associated with Cc1n[nH]c(C)c1-c1ccc(NC(=O)C(c2nnc(-c3ccncc3)[nH]2)C(C2CC2)C2CC2)cc1 (centres unmarked) [Example 33] on human IL-17AA (Homo sapiens, UniProt Q16552)?
// result 6.32

// query pEC50 of Cc1n[nH]c(C)c1-c1ccc(NC(=O)C(c2nnc(-c3ccccn3)[nH]2)C(C2CC2)C2CC2)cc1 (centres unmarked) [Example 58] on human IL-17AA (Homo sapiens, UniProt Q16552)?
// result 6.51

// query Please provide the recorded pEC50 for Cc1n[nH]c(C)c1-c1ccc(NC(=O)C(c2ncc(-c3ccnn3C(C)C)[nH]2)C(C2CC2)C2CC2)cc1 (centres unmarked) [Example 68] , tested on human IL-17AA (Homo sapiens, UniProt Q16552).
// result 6.77

// query Short answer please: pEC50, human IL-17AA (Homo sapiens, UniProt Q16552), entry COc1cc(-c2cnc(C(C(=O)Nc3ccc(-c4c(C)n[nH]c4C)cc3)C(C3CC3)C3CC3)[nH]2)ccn1 (centres unmarked) [Example 69]
// result 6.31

// query What measured pEC50 is associated with Cc1n[nH]c(C)c1-c1ccc(NC(=O)C(c2nnc(-c3cnn(C)c3)[nH]2)C(C2CC2)C2CC2)cc1 (centres unmarked) [Example 20] on human IL-17AA (Homo sapiens, UniProt Q16552)?
// result 6.00

// query Identify the measured pEC50 of Cc1n[nH]c(C)c1-c1ccc(NC(=O)C(c2nnc[nH]2)C(C2CC2)C2CC2)cc1 (centres unmarked) [Example 4] for human IL-17AA (Homo sapiens, UniProt Q16552).
// result 5.54

// query Recorded pEC50 for Cc1n[nH]c(C)c1-c1ccc(NC(=O)C(c2nnc(-c3ccnc(C(F)F)c3)[nH]2)C2CCC(F)(F)CC2)cc1 (centres unmarked) [Example 63] with human IL-17AA (Homo sapiens, UniProt Q16552), please?
// result 6.70

// query Under human IL-17AA (Homo sapiens, UniProt Q16552): pEC50 value of COc1ccccc1-c1nnc(C(C(=O)Nc2ccc(-c3c(C)n[nH]c3C)cc2)C(C2CC2)C2CC2)[nH]1 (centres unmarked) [Example 19] ?
// result 6.21

// query Report pEC50 for Cc1cc(-c2nnc(C(C(=O)Nc3ccc(-c4c(C)n[nH]c4C)cc3)C3CCC(F)(F)CC3)[nH]2)ccn1 (centres unmarked) [Example 65] tested on human IL-17AA (Homo sapiens, UniProt Q16552).
// result 6.28

// query Could you share what pEC50 was measured for Cc1n[nH]c(C)c1-c1ccc(NC(=O)C(c2nnc(-c3ccnn3C(C)C)[nH]2)C(C2CC2)C2CC2)c(F)c1 (centres unmarked) [Example 12] , tested on human IL-17AA (Homo sapiens, UniProt Q16552)?
// result 6.85

// query What reported pEC50 corresponds to Cc1n[nH]c(C)c1-c1ccc(NC(=O)C(c2ncc[nH]2)C(C2CC2)C2CC2)cc1 (centres unmarked) [Example 6] on human IL-17AA (Homo sapiens, UniProt Q16552)?
// result 5.89

// query Form entry - test system: human IL-17AA (Homo sapiens, UniProt Q16552); read-out: pEC50; molecule: Cc1nn(C)cc1-c1nnc(C(C(=O)Nc2ccc(-c3c(C)n[nH]c3C)cc2)C(C2CC2)C2CC2)[nH]1 (centres unmarked) [Example 25]
// result 6.64

// query Provide the documented pEC50 with human IL-17AA (Homo sapiens, UniProt Q16552) as the system for Cc1n[nH]c(C)c1-c1ccc(NC(=O)C(c2nnc(-c3ccnc(C(F)(F)F)c3)[nH]2)C(C2CC2)C2CC2)cc1 (centres unmarked) [Example 54]
// result 7.12
